Data provenance: patent US8834843B2

Assay: Biodistribution in BDL rats with and without excess cold compound
Type: in vivo
Conditions: male, Sprague Dawley, rat, bile and urine, iv, 3 MBq, total radioactivity, BDL rats, 15 days post-op, 1 hour post-injection, no excess
Numbered stars: 1 amine (or outer) side, 2 acyl side, 3 side chain; on linkers, the order of the positions; unused ones are H or OH. Bridge positions count the residues as written; N and C are the ends. Side chains are listed from the residue outwards. Peptide text beside a SMILES is read from it. * marks the point of attachment. X1 = C/C(=N\O)C(C)(C)NCCC(CCNC(C)(C)/C(C)=N/O)CCN*; Glutaryl = O=C(CCCC(=O)[*:2])[*:1]; X2 = NC(=O)COCC(=O)NCCOCCOCCOCCN*
measured.metric: dose excreted at 1 h (%)

molecule	measured.metric	result
C/C(=N\O)C(C)(C)NCCC(CCNC(=O)CCCC(=O)NCCCC[C@@H]1NC(=O)CSC[C@@H](C(=O)NCCOCCOCCOCCNC(=O)COCC(N)=O)NC(=O)[C@H](Cc2ccccc2)NC(=O)[C@@H]2CSSC[C@H](NC1=O)C(=O)N[C@@H](CCCNC(=N)N)C(=O)NCC(=O)N[C@@H](CC(=O)O)C(=O)N2)CCNC(C)(C)/C(C)=N/O (stereo partly shown) [Compound 8] ({CH2CO}-K([Glutaryl-X1])CRGDCFC-X2; disulfide 2-6; thioether N-8)	dose excreted at 1 h	41

----------
Test: Biodistribution in BDL rats with and without excess cold compound
Assay type: in vivo
Conditions: male, Sprague Dawley, rat, stomach, iv, total radioactivity, BDL rats, 15 days post-op, 1 hour post-injection, 100-fold excess cold Compound 8; read-out: Activity in Stomach, Mean
Numbered stars: 1 amine (or outer) side, 2 acyl side, 3 side chain; on linkers, the order of the positions; unused ones are H or OH. Bridge positions count the residues as written; N and C are the ends. Side chains are listed from the residue outwards. Peptide text beside a SMILES is read from it. * marks the point of attachment. X1 = C/C(=N\O)C(C)(C)NCCC(CCNC(C)(C)/C(C)=N/O)CCN*; Glutaryl = O=C(CCCC(=O)[*:2])[*:1]; X2 = NC(=O)COCC(=O)NCCOCCOCCOCCN*
measured.metric: tissue uptake dose at 1 h (%ID)

compound	result
C/C(=N\O)C(C)(C)NCCC(CCNC(=O)CCCC(=O)NCCCC[C@@H]1NC(=O)CSC[C@@H](C(=O)NCCOCCOCCOCCNC(=O)COCC(N)=O)NC(=O)[C@H](Cc2ccccc2)NC(=O)[C@@H]2CSSC[C@H](NC1=O)C(=O)N[C@@H](CCCNC(=N)N)C(=O)NCC(=O)N[C@@H](CC(=O)O)C(=O)N2)CCNC(C)(C)/C(C)=N/O (stereo partly shown) [Compound 8] ({CH2CO}-K([Glutaryl-X1])CRGDCFC-X2; disulfide 2-6; thioether N-8)	0.96

----------
Test: Biodistribution in BDL rats with and without excess cold compound
Type: in vivo
Conditions: male, Sprague Dawley, rat, heart, iv, total radioactivity, BDL rats, 15 days post-op, 1 hour post-injection, 100-fold excess cold Compound 8; read-out: Activity in Heart, Mean
Numbered stars: 1 amine (or outer) side, 2 acyl side, 3 side chain; on linkers, the order of the positions; unused ones are H or OH. Bridge positions count the residues as written; N and C are the ends. Side chains are listed from the residue outwards. Peptide text beside a SMILES is read from it. * marks the point of attachment. X1 = C/C(=N\O)C(C)(C)NCCC(CCNC(C)(C)/C(C)=N/O)CCN*; Glutaryl = O=C(CCCC(=O)[*:2])[*:1]; X2 = NC(=O)COCC(=O)NCCOCCOCCOCCN*
measured.metric: tissue uptake dose at 1 h (%ID)

compound	result
C/C(=N\O)C(C)(C)NCCC(CCNC(=O)CCCC(=O)NCCCC[C@@H]1NC(=O)CSC[C@@H](C(=O)NCCOCCOCCOCCNC(=O)COCC(N)=O)NC(=O)[C@H](Cc2ccccc2)NC(=O)[C@@H]2CSSC[C@H](NC1=O)C(=O)N[C@@H](CCCNC(=N)N)C(=O)NCC(=O)N[C@@H](CC(=O)O)C(=O)N2)CCNC(C)(C)/C(C)=N/O (stereo partly shown) [Compound 8] ({CH2CO}-K([Glutaryl-X1])CRGDCFC-X2; disulfide 2-6; thioether N-8)	0.13

----------
Assay: Biodistribution in BDL rats with and without excess cold compound
Format: in vivo
Details: male, Sprague Dawley, rat, injection site, iv, total radioactivity, BDL rats, 15 days post-op, 1 hour post-injection, 100-fold excess cold Compound 8; read-out: Activity in Injection Site, Mean
Procedure: On the appropriate day post surgery BDL and sham animals were removed and put under isoflurane anaesthesia, then each animal was injected with 0.3 ml intravenously (i.v.) via tail vein (˜3MBq). At the appropriate time point post-injection of the test item, each animal was re-anaesthetised with isoflurane, sacrificed by cervical dislocation weighed and the weight recorded via a barcode scanning system. […]
Numbered stars: 1 amine (or outer) side, 2 acyl side, 3 side chain; on linkers, the order of the positions; unused ones are H or OH. Bridge positions count the residues as written; N and C are the ends. Side chains are listed from the residue outwards. Peptide text beside a SMILES is read from it. * marks the point of attachment. X1 = C/C(=N\O)C(C)(C)NCCC(CCNC(C)(C)/C(C)=N/O)CCN*; Glutaryl = O=C(CCCC(=O)[*:2])[*:1]; X2 = NC(=O)COCC(=O)NCCOCCOCCOCCN*
measured.metric: tissue uptake dose at 1 h

molecule	measured.metric	result
C/C(=N\O)C(C)(C)NCCC(CCNC(=O)CCCC(=O)NCCCC[C@@H]1NC(=O)CSC[C@@H](C(=O)NCCOCCOCCOCCNC(=O)COCC(N)=O)NC(=O)[C@H](Cc2ccccc2)NC(=O)[C@@H]2CSSC[C@H](NC1=O)C(=O)N[C@@H](CCCNC(=N)N)C(=O)NCC(=O)N[C@@H](CC(=O)O)C(=O)N2)CCNC(C)(C)/C(C)=N/O (stereo partly shown) [Compound 8] ({CH2CO}-K([Glutaryl-X1])CRGDCFC-X2; disulfide 2-6; thioether N-8)	tissue uptake dose at 1 h	1.75 %ID

----------
Test: Biodistribution in sham-operated rats with and without excess cold compound
Assay type: in vivo
Conditions: male, Sprague Dawley, rat, skin, iv, 3 MBq, total radioactivity, 15 days post-op, 1 hour post-injection, no excess, read-out: Activity in Skin, Mean
Numbered stars: 1 amine (or outer) side, 2 acyl side, 3 side chain; on linkers, the order of the positions; unused ones are H or OH. Bridge positions count the residues as written; N and C are the ends. Side chains are listed from the residue outwards. Peptide text beside a SMILES is read from it. * marks the point of attachment. X1 = C/C(=N\O)C(C)(C)NCCC(CCNC(C)(C)/C(C)=N/O)CCN*; Glutaryl = O=C(CCCC(=O)[*:2])[*:1]; X2 = NC(=O)COCC(=O)NCCOCCOCCOCCN*

molecule	tissue uptake dose at 1 h
C/C(=N\O)C(C)(C)NCCC(CCNC(=O)CCCC(=O)NCCCC[C@@H]1NC(=O)CSC[C@@H](C(=O)NCCOCCOCCOCCNC(=O)COCC(N)=O)NC(=O)[C@H](Cc2ccccc2)NC(=O)[C@@H]2CSSC[C@H](NC1=O)C(=O)N[C@@H](CCCNC(=N)N)C(=O)NCC(=O)N[C@@H](CC(=O)O)C(=O)N2)CCNC(C)(C)/C(C)=N/O (stereo partly shown) [Compound 8] ({CH2CO}-K([Glutaryl-X1])CRGDCFC-X2; disulfide 2-6; thioether N-8)	14.4 %ID

----------
Test: Biodistribution in sham-operated rats with and without excess cold compound
Assay type: in vivo
Conditions: male, Sprague Dawley, rat, bone, iv, 3 MBq, total radioactivity, 15 days post-op, 1 hour post-injection, +100-fold excess cold Compound 8, read-out: Activity in Bone, Mean
Numbered stars: 1 amine (or outer) side, 2 acyl side, 3 side chain; on linkers, the order of the positions; unused ones are H or OH. Bridge positions count the residues as written; N and C are the ends. Side chains are listed from the residue outwards. Peptide text beside a SMILES is read from it. * marks the point of attachment. X1 = C/C(=N\O)C(C)(C)NCCC(CCNC(C)(C)/C(C)=N/O)CCN*; Glutaryl = O=C(CCCC(=O)[*:2])[*:1]; X2 = NC(=O)COCC(=O)NCCOCCOCCOCCN*

compound	tissue uptake dose at 1 h, %ID
C/C(=N\O)C(C)(C)NCCC(CCNC(=O)CCCC(=O)NCCCC[C@@H]1NC(=O)CSC[C@@H](C(=O)NCCOCCOCCOCCNC(=O)COCC(N)=O)NC(=O)[C@H](Cc2ccccc2)NC(=O)[C@@H]2CSSC[C@H](NC1=O)C(=O)N[C@@H](CCCNC(=N)N)C(=O)NCC(=O)N[C@@H](CC(=O)O)C(=O)N2)CCNC(C)(C)/C(C)=N/O (stereo partly shown) [Compound 8] ({CH2CO}-K([Glutaryl-X1])CRGDCFC-X2; disulfide 2-6; thioether N-8)	3.06

----------
Test: Biodistribution in sham-operated rats with and without excess cold compound
Format: in vivo
Settings: male, Sprague Dawley, rat, liver, iv, 3 MBq, total radioactivity, 15 days post-op, 1 hour post-injection, +10K-fold excess cold Compound 8, read-out: Activity in Liver, Mean
Numbered stars: 1 amine (or outer) side, 2 acyl side, 3 side chain; on linkers, the order of the positions; unused ones are H or OH. Bridge positions count the residues as written; N and C are the ends. Side chains are listed from the residue outwards. Peptide text beside a SMILES is read from it. * marks the point of attachment. X1 = C/C(=N\O)C(C)(C)NCCC(CCNC(C)(C)/C(C)=N/O)CCN*; Glutaryl = O=C(CCCC(=O)[*:2])[*:1]; X2 = NC(=O)COCC(=O)NCCOCCOCCOCCN*

molecule	tissue uptake dose at 1 h
C/C(=N\O)C(C)(C)NCCC(CCNC(=O)CCCC(=O)NCCCC[C@@H]1NC(=O)CSC[C@@H](C(=O)NCCOCCOCCOCCNC(=O)COCC(N)=O)NC(=O)[C@H](Cc2ccccc2)NC(=O)[C@@H]2CSSC[C@H](NC1=O)C(=O)N[C@@H](CCCNC(=N)N)C(=O)NCC(=O)N[C@@H](CC(=O)O)C(=O)N2)CCNC(C)(C)/C(C)=N/O (stereo partly shown) [Compound 8] ({CH2CO}-K([Glutaryl-X1])CRGDCFC-X2; disulfide 2-6; thioether N-8)	3.03 %ID
